Documented max response, negative = inhibition across a set of compounds
Molecular target: Vitamin D3 receptor (Homo sapiens) (UniProt P11473)
Sequence (P11473 whole entry, looked up): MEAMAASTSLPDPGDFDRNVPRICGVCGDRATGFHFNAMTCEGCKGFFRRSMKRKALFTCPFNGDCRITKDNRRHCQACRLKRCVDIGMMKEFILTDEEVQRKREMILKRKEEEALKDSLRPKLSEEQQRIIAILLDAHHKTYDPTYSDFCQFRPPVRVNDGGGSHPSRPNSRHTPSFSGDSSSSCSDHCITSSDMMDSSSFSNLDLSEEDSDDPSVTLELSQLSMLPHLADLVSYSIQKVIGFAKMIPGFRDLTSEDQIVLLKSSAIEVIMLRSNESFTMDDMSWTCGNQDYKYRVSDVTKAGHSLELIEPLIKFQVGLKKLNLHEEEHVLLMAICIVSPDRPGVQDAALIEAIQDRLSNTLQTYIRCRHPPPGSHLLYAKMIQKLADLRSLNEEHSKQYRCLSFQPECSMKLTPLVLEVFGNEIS
Assay: Inhibitors of the vitamin D receptor (VDR): qHTS; further: on the % scale 0 is the no-effect control and ±100 the full control effect
Details: VDR-SRC2-3 peptide fluorescence polarization, 2 h; hits give low values
In all, about 400,000 compounds went through this assay and about 3,700 (0.93%) were called active. Inconclusive results (about 3%) are left out. The sample holds actives, similar compounds and a random draw of the others, so the mix is not that of the screen.
Form entry: value (%) — number only.

                                   compound                         test_readout  meas_value
0  CCOC(=O)c1c(C)[nH]c(CCC(=O)Nc2ccc(OC)c(OC)c2)c1C  max response, negative = inhibition       -6.79
1       Cc1nnc(NC(=O)C(c2ccccc2)c2ccccc2)s1  max response, negative = inhibition        13.7
2  CCOC(=O)c1cc(NC(=O)c2ccc(F)cc2)c(=O)n2c1oc1ccccc12  max response, negative = inhibition        4.45
3  CCOC(=O)c1cnc2c(C)cc(Cl)cc2c1NCCc1ccc(OC)c(OC)c1  max response, negative = inhibition        2.98
4  O=C(C1CCC(Cn2c(=O)c3sccc3n(Cc3ccccc3F)c2=O)CC1)N1CCCCC1 (stereo not given)  max response, negative = inhibition         8.9
5  CCOc1ccc(NC(=O)CN(Cc2ccccc2)S(=O)(=O)c2ccc(Cl)cc2)cc1  max response, negative = inhibition        3.79

Please state recorded max response, negative = inhibition (tested on Vitamin D3 receptor (Homo sapiens) (UniProt P11473)) of N#Cc1c(N)sc2c1CCN(C(=O)OCc1ccccc1)C2
-3.82

Entry COC(=O)c1sc(N2CCN(Cc3ccccc3)CC2)nc1N , system Vitamin D3 receptor (Homo sapiens) (UniProt P11473): what max response, negative = inhibition was measured?
1.38

Lab note: need max response, negative = inhibition for CCCCCCCC1=Cc2ccc(F)cc2C(C(C(=O)OC)C(=O)OC)N1C(=O)OC (stereo not given) on Vitamin D3 receptor (Homo sapiens) (UniProt P11473), anyone have it?
2.51

Please state recorded max response, negative = inhibition (tested on Vitamin D3 receptor (Homo sapiens) (UniProt P11473)) of CC(C)(C)c1ccc(C(=O)NNC(=O)Cc2ccccc2)cc1
3.53

# returns recorded max response, negative = inhibition (system: Vitamin D3 receptor (Homo sapiens) (UniProt P11473)) for O=C(c1ccc(CSc2ccccc2)cc1)N1CCCCCC1
-7.06

Give recorded max response, negative = inhibition with Vitamin D3 receptor (Homo sapiens) (UniProt P11473) for the following compound: CC1=Nc2cc(C(=O)N3CCC(C)CC3)ccc2Sc2ccc(Cl)cc21
-2.31

API: value(readout= max response, negative = inhibition, system= Vitamin D3 receptor (Homo sapiens) (UniProt P11473), query= Nc1ccc2c(c1)C(=Cc1cccnc1)c1ccccc1-2 )
-7.1

Reported max response, negative = inhibition for Vitamin D3 receptor (Homo sapiens) (UniProt P11473), given COc1ccccc1-c1noc(CSc2nnc(-c3ccccc3)n2-c2ccc(C)c(C)c2)n1 ?
5.39

Query the reported max response, negative = inhibition for Vitamin D3 receptor (Homo sapiens) (UniProt P11473); item: O=Cc1cn(-c2ccccc2)nc1-c1ccccn1
0.792

###

Target: Vitamin D3 receptor (Homo sapiens) (UniProt P11473)
Test: Inhibitors of the vitamin D receptor (VDR): qHTS; further: on the % scale 0 is the no-effect control and ±100 the full control effect
Details: VDR-SRC2-3 peptide fluorescence polarization, 2 h; hits give low values
Hit rate of the full screen: of about 400,000 compounds, about 3,700 (0.93%) were called active. Not shown: some 3% with an inconclusive outcome. This is one part of a sample in which actives are shown more often than they occur.
test readout: max response, negative = inhibition (%)
Quick reminder: number only, in %, skip the unit.

compound	max response, negative = inhibition / %
COC(=O)c1cc(NC(=O)CCc2c(C)nc3c4c(C)cc(C)nc4nn3c2C)cc(C(=O)OC)c1	-12
O=C(O)CSc1ccc(S(=O)(=O)N2CCCC2)cn1	10.8
Cc1cccc(CSc2nc3ccncc3n2CC(=O)N(C)C2CCCCC2)c1	-0.866
Cc1ccc(OCC(=O)Nc2ccc(OCc3cc(=O)n4c(C)csc4n3)cc2)cc1C	-8.2
O=C(OCc1cc(Cl)ccc1OC(F)F)c1cccnc1	3.25

Let's switch to this compound now.
Lab request: please report max response, negative = inhibition under test system Vitamin D3 receptor (Homo sapiens) (UniProt P11473) for COc1cc(OC)c(C2C=C(C(=O)O)Nc3ncnn32)cc1OC (configuration not stated)
-29.8

###

Catalogue of compounds with associated max response, negative = inhibition
Molecular target: Vitamin D3 receptor (Homo sapiens)
Test: Inhibitors of the vitamin D receptor (VDR): qHTS; further: on the % scale 0 is the no-effect control and ±100 the full control effect
Details: VDR-SRC2-3 peptide fluorescence polarization, 2 h; hits give low values
Screen size: about 400,000 compounds; about 3,700 (0.93%) were called active. Inconclusive results (about 3%) are left out. The entries come from a sample that favours actives as a whole.

Solved entries:
                                   compound                         test_readout          meas_value
0  c1ccc(-c2cc3c(NCC4COc5ccccc5O4)ncnc3s2)cc1 (stereo not drawn)  max response, negative = inhibition     3.5% (inactive)
1  COc1ccc(Cc2nc3ccc(C(=O)NCc4ccc(OC)cc4OC)cc3o2)cc1  max response, negative = inhibition  0.0782% (inactive)
2          Cc1c(Cl)cccc1NC(=O)c1noc2c1CCCC2  max response, negative = inhibition   -14.6% (inactive)
3                           CC(=O)/C(C)=N\O  max response, negative = inhibition    -2.4% (inactive)
4              COc1ccccc1-c1nnc(SCC(N)=O)o1  max response, negative = inhibition    10.5% (inactive)

// max response, negative = inhibition lookup, key: CC1=C(c2ccc(C)c(C)c2)S(=O)(=O)NC1=NCc1ccccc1Cl
4.51% (inactive)

Given CCOc1ccc(NC(=O)c2ncoc2-c2ccco2)cc1 , state its recorded max response, negative = inhibition.
3.68% (inactive)

Request the reported max response, negative = inhibition associated with COc1ccc(CCNC(=O)CCCCn2c(=O)c3ccccc3n(Cc3ccccc3C)c2=O)cc1OC
7.91% (inactive)

I am curious: what max response, negative = inhibition value has been reported for COc1ccccc1-c1nc(N2CCN(C)CC2)c2ccccc2n1 ?
-9.82% (inactive)

For the compound shown here, C=CCNC(=O)c1ccc2nc(-c3ccco3)c(-c3ccco3)nc2c1 , give the reported max response, negative = inhibition.
-28.3% (inactive)

# lookup: max response, negative = inhibition of CCCCC(=O)NC(c1ccc(OC)c(OC)c1)c1ccc2cccnc2c1O (stereo not drawn)
6.08% (inactive)

Requested read-out: max response, negative = inhibition. Entry: CCOC(=O)c1nnn(CC(=O)NC(=O)Nc2ccccc2F)c1C(=O)OCC
1.08% (inactive)

// lookup max response, negative = inhibition for CC1(C)Cc2ccccc2-c2[nH]c(=S)[nH]c(=O)c21
-2% (inactive)

###

Target: Vitamin D3 receptor (Homo sapiens)
Test: Inhibitors of the vitamin D receptor (VDR): qHTS; further: on the % scale 0 is the no-effect control and ±100 the full control effect
Conditions: VDR-SRC2-3 peptide fluorescence polarization, 2 h; hits give low values
Among all 400,000 compounds or so, about 3,700 (0.93%) were called active. Roughly 3% stayed inconclusive and do not appear here. Shown is part of a subset that was picked to be rich in actives.
test readout: max response, negative = inhibition (%)
Enter your answer as a number in %; do not include the unit.

Example cases with answers are listed next.
>>> print(df.to_string())
                                smiles_repr  meas_value
0  CCN(CCCNC(=O)c1cc2cc3cc(OC)ccc3nc2s1)c1ccccc1       -7.19
1  CC(C)Cn1c(=O)c2ccccc2n2c(-c3cccc(Cl)c3)nnc12        21.6
2  O=C(c1cnn(-c2ccc(F)cc2)c1-n1cccc1)N1CCN(c2ccc(F)cc2)CC1       -3.32

May I ask what max response, negative = inhibition has been recorded for Cc1ccc(OCC(=O)Nc2ccc(Cl)c(-c3nc4ccccc4[nH]3)c2)cc1C ?
2.81

# max response, negative = inhibition lookup, item COc1ccccc1CNc1nccn(-c2ccc(F)cc2)c1=O
6.76

Consider the compound CCc1ccccc1NC(=O)CSc1nc(C)c(C(=O)Nc2ccccc2)c(-c2ccc(Cl)cc2)c1C#N and give its measured max response, negative = inhibition.
5.32

I would be grateful if you could share the reported max response, negative = inhibition for CCOc1cc(C(=O)OCC(=O)Nc2cccc(C)c2)ccc1OCC(=O)N1CCOCC1 .
8.55

// lookup max response, negative = inhibition for C[C@@H]1C[C@H]2[C@@H]3C[C@H](F)C4=CC(=O)C=C[C@@]4(C)[C@]3(F)[C@H](O)C[C@]2(C)[C@@]1(O)C(=O)CO
-2.08

# query: max response, negative = inhibition of entry CC(C)c1ccc2oc(-c3cc(NC(=O)c4cccs4)ccc3Cl)nc2c1
15

Which value of max response, negative = inhibition has been reported for Cc1ccc(NC(=O)CSc2nc3c([nH]c4ccccc43)c(=O)n2-c2ccccc2)cc1Cl in the records?
5.44
